Here, each record is paired with measured Relative rate (%) data.
Tested on: glycerol oxidase II
experimentSummary: Inhibitors of enzyme: activity with 1 mM inhibitor, oxygen consumption rate by Warburg's manometer
Assay type: biochemical, Penicillium sp. KY 868
cond: activity with no inhibitor defined as 100, from oxygen consumption rate

molecule | unitOfMeasure | Relative rate (%)
O=C(O)c1cc[c]([Hg][Cl])cc1 [p-Chloromercuri benzoate] | % | 81.4
[Cl][Hg][Cl] [HgCl2] | % | 79.0
Cc1ccc2ccc3ccc(C)nc3c2n1 [Neocuproine] | % | 80.3

###

Here, each record is paired with measured Relative activity data.
Tested on: glycerol oxidase II
experimentSummary: Substrate specificity, relative activity by 4-AA method
Format: biochemical, Penicillium sp. KY 868
cond: substrate equimolar to glycerol; activity on glycerol defined as 100; 4-AA method
Procedure: The relative activity is measured using other substrates in equimolar amounts to that of glycerol in the procedure for measuring the activity according to 4-AA method. […] The reagents (1)-(6) are mixed in a test tube, and then shaken at 37° C. for 5 minutes. […] The optical density of the reaction solution at 500 nm is measured, and a difference from the control is determined as ΔOD (optical density).
assayReadout: Relative activity

molecule | assayReadout | numericReadout
CC(O)CO (stereo not shown) | Relative activity | 11
CCCO | Relative activity | 11
OCCCCO | Relative activity | 11
CCC(C)O (stereo not shown) | Relative activity | 9
CC(C)CO | Relative activity | 14
CC(O)C(C)O (stereo not shown) | Relative activity | 16
O=C(CO)CO [Dihydroxyacetone] | Relative activity | 293
